Tested on: HCT-116
Procedure details: Antiproliferative activity against human HCT-116 cells assessed as inhibition of cell growth incubated for 72 hrs by MTT assay
Format: functional, cell-based
Test context: HCT-116, 72 h
Measured parameter: IC50 (µM)
Give the value, in units of µM, as a plain number.

Any idea what IC50 came out for "N#Cc1ccc(-c2c[nH]c(=O)n3ccnc23)cc1" on HCT-116?
42.5

###

Test system: Aorta
Procedure details: Vasorelaxant activity in rabbit aorta assessed as inhibition of phenylephrine-induced contraction
Format: functional, tissue-based
Test context: Oryctolagus cuniculus
Overview of reported pIC50 across a group of compounds:
Would you please state pIC50, meaning minus log10 of the concentration in mol/L, as a bare number?

Which pIC50 is reported for this compound? "Nc1cc(N)nc(-c2nc(Cc3ccccc3F)c3ncccn23)n1"
5.98

Next: "Nc1nc(N)nc(-c2nc(Cc3ccccc3F)c3ncccn23)n1"
6.67

###

Overview of reported MIC across a group of molecules:
System: Candida dubliniensis
Procedure details: Antifungal activity against Candida dubliniensis CD36 assessed as reduction in fungal growth incubated for 24 hrs by CLSI based assay
Assay type: functional
Give the value, in units of µg/mL, as a plain number.

Guide cases for MIC, answers given:
O=C(c1ccc(Cl)cc1)c1cnc2ncccn12 :: 0.5
O=C(c1ccccc1)c1cnc2ncccn12 :: 0.062
OC(Cn1cncn1)(Cn1cncn1)c1ccc(F)cc1F :: 0.5
N#Cc1ccc(C(=O)c2cnc3ncccn23)cc1 :: 0.062
Cc1ccc(C(=O)c2cnc3ncccn23)cc1 :: 0.25
CC(=O)N1CCN(c2ccc(OCC3COC(Cn4ccnc4)(c4ccc(Cl)cc4Cl)O3)cc2)CC1 (configuration not stated) :: 2

Attention now turns to another entry.
Any idea what MIC came out for "O=C(c1ccc(F)cc1)c1cnc2ncccn12" on Candida dubliniensis?
0.5

###

System under test: Pyruvate kinase PKM (Homo sapiens)
Sequence (P14618 whole entry): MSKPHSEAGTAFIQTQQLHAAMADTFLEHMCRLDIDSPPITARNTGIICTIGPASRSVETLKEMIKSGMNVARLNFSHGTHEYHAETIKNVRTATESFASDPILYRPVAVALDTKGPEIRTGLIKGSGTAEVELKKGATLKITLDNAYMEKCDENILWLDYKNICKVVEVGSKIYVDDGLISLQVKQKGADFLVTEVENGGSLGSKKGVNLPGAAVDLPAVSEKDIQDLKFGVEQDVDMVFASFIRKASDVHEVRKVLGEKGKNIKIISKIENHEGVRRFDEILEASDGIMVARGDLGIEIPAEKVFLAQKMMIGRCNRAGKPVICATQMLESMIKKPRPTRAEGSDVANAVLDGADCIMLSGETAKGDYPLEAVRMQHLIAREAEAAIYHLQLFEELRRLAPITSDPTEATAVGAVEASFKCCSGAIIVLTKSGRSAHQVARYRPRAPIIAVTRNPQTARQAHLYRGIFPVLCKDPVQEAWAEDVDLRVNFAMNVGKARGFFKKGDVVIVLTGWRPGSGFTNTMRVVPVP
Procedure details: Inhibition of recombinant PKM2 (unknown origin)
Overview of reported IC50 across a group of compounds:
Give the value, in units of nM, as a plain number.

Guide cases for IC50, answers given:
O=C(CN1CCN(c2ccc(Cl)cc2)CC1)c1cnc2ncccn12 :: 790
O=C(CN1CCN(c2ccco2)CC1)c1cnc2ncccn12 :: 310
COc1ccccc1N1CCN(CC(=O)c2cnc3ncccn23)CC1 :: 27

Attention now turns to another entry.
Which IC50 is reported for this compound? "N#Cc1ccccc1N1CCN(CC(=O)c2cnc3ncccn23)CC1"
1200
